- procedureText: Evaluation of dissolution stability (content change on storage in dissolved state)
- Format: physicochemical
- reportedConditions: 1 mg/1 ml dissolved state, 40° C. and RH 75%, day 3
Where no end group is shown, it is not given here. [ ]: non-standard residue; d: D form. Pro(4,4-Me2) = CC1(C)CN[C@H](C(=O)O)C1; Hyp = O=C(O)[C@@H]1C[C@@H](O)CN1
assayEndpoint: Day 3 content (%)
Give bare numbers, in %.

- substance: "Hyp-Gly-Gln-Leu-Leu ([Hyp]GQLL) [Example 121]"
  displayUnit: "%"
  Day 3 content (%): 99.13
- substance: "Hyp-Gly-Gln-Asp-Val-Leu-Ala ([Hyp]GQDVLA) [Example 23]"
  displayUnit: "%"
  Day 3 content (%): 94.22
- substance: "4,4-dimethyl Pro-Gly-Gln-Asp-Gly-Leu-Ala ([Pro(4,4-Me2)]GQDGLA) [Example 57]"
  displayUnit: "%"
  Day 3 content (%): 71.82
- substance: "[Hyp]GQDVLA [Example 37]"
  displayUnit: "%"
  Day 3 content (%): 97.76
- substance: "GQDGLA [Example 29]"
  displayUnit: "%"
  Day 3 content (%): 92.16

Hey, quick one: what's Day 3 content (%) for each of these?
1. Hyp-Gly-Gln-Ala-Gly-Leu-Ala ([Hyp]GQAGLA) [Example 14]
2. Hyp-Gly-Gln-Asp-Ala ([Hyp]GQDA) [Example 33]
3. Hyp-Gly-Gln-D Asp-Leu ([Hyp]GQ[dD]L) [Example 125]

Response:
1: 96.07; 2: 89.94; 3: 95.07

Hey, quick one: what's Day 3 content (%) for each of these?
1. Hyp-Gly-Gln-Asu-Gly-Leu-Ala (isopropyl ester) [Example 113]
2. Hyp-Gly-Gln-Ala-Gly-Leu ([Hyp]GQAGL) [Example 122]

Response:
1: 85.41; 2: 98.56

Data provenance: patent US12428446B2
